All values here come from patent US6124328A.

# experimental system: UniProtKB P62942
# Sequence (P62942 whole entry): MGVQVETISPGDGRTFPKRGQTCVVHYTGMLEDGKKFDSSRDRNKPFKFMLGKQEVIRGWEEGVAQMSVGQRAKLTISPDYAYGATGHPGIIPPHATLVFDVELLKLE
# procedure summary: FKBP12 Binding Assay: inhibition of FKBP rotomase activity (cis-N-succinyl-Ala-Ala-Pro-Phe-p-nitroanilide / chymotrypsin), apparent Ki
# Format: biochemical
# cond: Table 1a, formula Ia, compound 0.1 nM-10 μM
Measured Ki values are reported for all entries that follow.

compound: O=C(Cc1ccccc1[N+](=O)[O-])C(=O)N1CCCC[C@H]1C(=O)OCc1ccccc1
experimental system: UniProtKB P62942
Ki: 26 µM
--
compound: COc1cc(C(=O)C(=O)N2CCCC[C@H]2C(=O)OCCCC(C)C2CCCCC2)cc(OC)c1OC (some centres unmarked)
experimental system: UniProtKB P62942
Ki: 0.09 µM
